# STUDY SYSTEM: T1, human GIP receptor (human, UniProt P48546 22-466)
# T1 sequence (looked up): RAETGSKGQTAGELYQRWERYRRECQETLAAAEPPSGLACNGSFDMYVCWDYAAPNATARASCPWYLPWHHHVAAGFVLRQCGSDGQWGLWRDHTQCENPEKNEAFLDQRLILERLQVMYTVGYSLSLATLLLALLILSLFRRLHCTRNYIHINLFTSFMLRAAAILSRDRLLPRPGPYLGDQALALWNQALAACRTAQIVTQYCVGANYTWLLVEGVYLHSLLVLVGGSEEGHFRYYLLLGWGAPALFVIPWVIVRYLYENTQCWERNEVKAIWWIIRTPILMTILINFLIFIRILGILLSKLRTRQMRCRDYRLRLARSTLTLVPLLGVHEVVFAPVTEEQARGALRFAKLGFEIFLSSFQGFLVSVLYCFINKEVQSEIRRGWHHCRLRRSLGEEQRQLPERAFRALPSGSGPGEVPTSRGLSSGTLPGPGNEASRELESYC
# METHOD SUMMARY: cell-based or functional assay
Starred links: 1 amine or outer side, 2 acyl side, 3 side chain; linkers in the order of their positions; H or OH if unused. Non-standard residues stand in square brackets, D forms with d. Groups on a side chain read outwards from the residue. No end group written: not given here. *: point of attachment. C18 diacid = O=C(O)CCCCCCCCCCCCCCCCC(=O)*; γGlu = O=C(O)[C@H](CCC(=O)[*:2])N[*:1]; AEEA = NCCOCCOCC(=O)O; Aib = CC(C)(N)C(=O)O
Exercise: state measured EC50, CreLuc assay, 0.5% hP for each of the binders provided.

Example entries begin here.
BINDER	VALUE OBSERVED
Y[Aib]EGTFTSDYSI[Aib]LEKQAQ[Aib]EFVEWLIK([AEEA-AEEA-γGlu-γGlu-γGlu-γGlu-C18 diacid])GGPSSPASLRHYYNWLTRQRY-NH2 (also: TFA salt) [Compound 56]	0.27 nM
YXEGTFTSDYSIXLEKQAQXAFVEWLIKGGPSSGASLRHYYNWLTRQRY (Aib at 2, 13, 20; DLeu 37; DHis 39; DArg 46; DTyr 49; K28 side chain: C20DA-gGlu-gGlu-gGlu-gGlu-gGlu-gGlu-eLys; C-terminal NH2) [Compound 5]	0.17 nM

What value of EC50, CreLuc assay, 0.5% hP has been reported for the following binder? YXEGTFTSDYSIXLEKQAQXAFVEWLIKGGPSSGQSLRHYYNWLTRQRY (Aib at 2, 13, 20; K28 side chain: C20DA-gGlu-gGlu-gGlu-gGlu-gGlu-gGlu-eLys; C-terminal NH2) [Compound 84]
0.23 nM
